- study-target: T1, human CD80-murine Ig fusion protein (human)
- T1 construct: Bought (Ancell #510-820); also called hCD80-mIg; human CD80-murine IgG
- T1 chain: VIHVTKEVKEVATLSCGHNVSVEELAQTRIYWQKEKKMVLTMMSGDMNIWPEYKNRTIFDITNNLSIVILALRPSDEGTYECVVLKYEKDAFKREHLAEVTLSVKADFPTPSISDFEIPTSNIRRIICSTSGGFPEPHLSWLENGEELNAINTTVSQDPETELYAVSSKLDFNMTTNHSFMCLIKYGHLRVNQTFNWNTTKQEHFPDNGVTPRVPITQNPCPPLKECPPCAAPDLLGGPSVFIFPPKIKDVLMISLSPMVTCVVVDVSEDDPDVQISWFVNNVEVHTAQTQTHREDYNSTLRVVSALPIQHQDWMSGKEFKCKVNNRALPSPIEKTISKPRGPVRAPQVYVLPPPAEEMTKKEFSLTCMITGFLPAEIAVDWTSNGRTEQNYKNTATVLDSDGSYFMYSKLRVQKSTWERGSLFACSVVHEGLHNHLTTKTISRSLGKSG
- experiment-notes: SPR Biacore, hCD80-mIg captured

# binder, Kd
measured = [
    ("D3-IgG2 (Fc fusion, also called clone D3) MHVAQPAVVLASSRGIASFVCEYESPGKANEIRVTVLRQAGSQVTEVCAMTYMKGDELTFLDDPSCTGTFSGNQVNLTIQGLRAADTGLYICKVELMYPPPYYLGFGNGTQIYVIDPEPCPDSDERKCCVECPPCPAPPVAGPSVFLFPPKPKDTLMISRTPEVTCVVVDVSHEDPEVQFNWYVDGVEVHNAKTKPREEQFNSTFRVVSVLTVVHQDWLNGKEYKCKVSNKGLPAPIEKTISKTKGQPREPQVYTLPPSREEMTKNQVSLTCLVKGFYPSDIAVEWESNGQPENNYKTTPPMLDSDGSFFLYSKLTVDKSRWQQGNVFSCSVMHEALHNHYTQKSLSLSPG", "0.439 to 1.75 nM"),
    ("D3-14-IgG2 (Fc fusion) MHVAQPAVVLASSRGIASFVCEYESPGKANEIRVTVLRQADSQVTEVCAMTYMKGDELTFLDDPSCTGTFSGNQVNLTIQGLRAADTGLYICKVELMYPPPYYLGIGNGTQIYVIDPEPCPDSDERKCCVECPPCPAPPVAGPSVFLFPPKPKDTLMISRTPEVTCVVVDVSHEDPEVQFNWYVDGVEVHNAKTKPREEQFNSTFRVVSVLTVVHQDWLNGKEYKCKVSNKGLPAPIEKTISKTKGQPREPQVYTLPPSREEMTKNQVSLTCLVKGFYPSDIAVEWESNGQPENNYKTTPPMLDSDGSFFLYSKLTVDKSRWQQGNVFSCSVMHEALHNHYTQKSLSLSPG", "0.439 to 1.75 nM"),
]
